tested on: Mus musculus; assay: Tested for antitumor activity in vivo and the weight change in grams for the tumor in mouse was determined; type: functional
MEASUREMENT_LABEL: Weight change (g)
# number only, unit g dropped from output

Input: Param readout = Weight change; param system = Mus musculus; param query = C#CCOC1CC(C)(O)Cc2cc3c(c(O)c21)C(=O)c1c(O)cc2c(c1C3=O)OC1OC2(C)C(O)C(N(C)C)C1O (centres undefined) ; response: value
Output: -0.7

Input: And then COC(=O)C1c2cc3c(c(O)c2C(OC2OC(C)C(OC)C(C)(OC)C2OC)CC1(C)O)C(=O)c1c(O)cc2c(c1C3=O)OC1OC2(C)C(O)C(N(C)C=O)C1O (centres undefined) , what is it?
Output: -0.1

Input: And then CN(C)C1C(O)C2Oc3c(cc(O)c4c3C(=O)c3cc5c(c(O)c3C4=O)CCC(C)(O)C5C(=O)O)C(C)(O2)C1O (centres undefined) , what is it?
Output: 0.2

Input: And then COCCNC1CC(C)(O)Cc2cc3c(c(O)c21)C(=O)c1c(O)cc2c(c1C3=O)OC1OC2(C)C(O)C(N(C)C)C1O (centres undefined) , what is it?
Output: 0.2
